This collection of values is drawn from patent US20220267469A1.

# Target desc: T1, Biotinylated human BSSL (human, UniProt P19835 21-753, Biotinylated on glycosacarides, 30-40 biotin/BSSL)
# T1 construct: hBSSL biotinylated in house; also called b-hBSSL; human BSSL-biotin
# T1 sequence: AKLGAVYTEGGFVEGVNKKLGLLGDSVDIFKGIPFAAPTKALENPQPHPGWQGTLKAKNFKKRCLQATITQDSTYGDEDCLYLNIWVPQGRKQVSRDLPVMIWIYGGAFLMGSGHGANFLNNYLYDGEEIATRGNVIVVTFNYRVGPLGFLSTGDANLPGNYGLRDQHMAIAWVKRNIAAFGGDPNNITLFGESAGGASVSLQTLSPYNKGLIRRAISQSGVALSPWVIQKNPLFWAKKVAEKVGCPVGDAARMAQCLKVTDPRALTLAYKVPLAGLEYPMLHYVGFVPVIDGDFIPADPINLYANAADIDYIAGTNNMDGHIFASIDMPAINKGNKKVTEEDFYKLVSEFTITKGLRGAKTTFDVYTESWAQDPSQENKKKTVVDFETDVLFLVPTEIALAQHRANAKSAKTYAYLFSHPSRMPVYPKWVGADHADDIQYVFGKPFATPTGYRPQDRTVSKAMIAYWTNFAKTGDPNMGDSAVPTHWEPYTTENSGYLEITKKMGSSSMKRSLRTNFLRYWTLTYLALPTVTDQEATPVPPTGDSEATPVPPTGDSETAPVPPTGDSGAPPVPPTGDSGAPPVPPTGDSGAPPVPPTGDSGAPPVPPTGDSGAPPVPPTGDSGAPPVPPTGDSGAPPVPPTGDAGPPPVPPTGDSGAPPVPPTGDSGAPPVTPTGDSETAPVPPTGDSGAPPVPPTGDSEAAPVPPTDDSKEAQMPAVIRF
# Method: flow cytometry displacement assay; 1.0 ug antibody, 1 ug b-hBSSL
We label by threshold. Values of percentage reduction of b-hBSSL binding to CD14+ monocytes strictly beneath 20% are met. Values of 20% and up are not met.

S-SL048-14 hIgG4 S228P (antibody, V domains shown, Tested as human IgG4 S228P) VH: QVQLVQSGAEVKKPGASVKVSCKASGYTFTSYNMHWVRQAPGQGLEWMGVINPGDGATSYAQKFKGRVTMTRDTSTSTVYMELSSLRSEDTAVYYCARDYYGSSPLGYWGQGTLVTVSS VL: DIQMTQSPSSLSASVGDRVTITCRASPSISYLNWYQQKPGKAPKLLIYATSRLPSGVPSRFSGSGSGTDFTLTISSLQPEDFATYYCQQRSSSPTFGQGTKLEIK :: not met

Task: Problem: For the binder S-SL048-41 hIgG4 S228P (antibody, V domains shown, Tested as human IgG4 S228P) VH: QVQLVQSGAEVKKPGASVKVSCKASGYTFTSYNMHWVRQAPGQGLEWIGVIYPGDGATSYAQKFKGRVTMTRDTSTSTVYMELSSLRSEDTAVYYCARDYYGSSPLGYWGQGTLVTVSS VL: DIQMTQSPSSLSASVGDRVTITCRASSSISYMNWYQQKPGKAPKLLIYATSRLPSGVPSRFSGSGSGTDFTLTISSLQPEDFATYYCHQRSSSPTFGQGTKLEIK , is percentage reduction of b-hBSSL binding to CD14+ monocytes under 20%?
Result: not met

Task: Problem: For the binder S-SL048-40 hIgG4 S228P (antibody, V domains shown, Tested as human IgG4 S228P) VH: QVQLVQSGAEVKKPGASVKVSCKASGYTFTSYNMHWVRQAPGQGLEWIGVINPSDGATSYAQKFQGRVTMTRDTSTSTVYMELSSLRSEDTAVYYCARDYYGSSPLGYWGQGTLVTVSS VL: DIQMTQSPSSLSASVGDRVTITCRASSSISYLNWYQQKPGKAPKLLIYAASRLPSGVPSRFSGSGSGTDFTLTISSLQPEDFATYYCQQRSSSPTFGQGTKLEIK , is percentage reduction of b-hBSSL binding to CD14+ monocytes under 20%?
Result: not met
